Source: ChEMBL document CHEMBL3808298

- Assay Procedure: Cytotoxicity against human A2780 cells assessed as reduction in cell viability after 72 hrs by MTT assay
- Assay type: cell-based
Property: GI50 at 72 h (nM)
Value expressed in nM; do not type the unit.

Solved cases (3 shown):
>>> measured_result("COc1ccc(/C=C/C(=O)c2cccc(Nc3nc(-c4ccc(OC)c(OC)c4)nc4ccccc34)c2)cc1OC")
1980
>>> measured_result("COc1ccc(/C=C/C(=O)c2cccc(Nc3ncnc4ccccc34)c2)cc1OC")
650
>>> measured_result("COc1ccc(/C=C/C(=O)c2cccc(Nc3nc(-c4ccc(OC)c(OC)c4)nc4ccccc34)c2)cc1")
4390

Continue with the next compound.
Supply recorded GI50 at 72 h for `COc1ccc(/C=C/C(=O)c2cccc(Nc3ncnc4cc(OC)c(OC)cc34)c2)cc1OC` here. 1350

====

- System: ABCB1 (P-glycoprotein)
- Assay Procedure: Therapeutic ratio of GI50 for human A2780/ADR cells overexpressing ABCB1 to IC50 for ABCB1 in human A2780/ADR cells
- Type: ADME, cell-based
- Setup Conditions: read-out: TI
# selectivity ratio annotations
Please state the value as a number alone, without comment.

Solved cases (3 shown):
>>> measured_result("COc1ccc(/C=C/C(=O)c2cccc(Nc3nc(-c4ccc(OC)c(OC)c4)nc4ccccc34)c2)cc1")
3
>>> measured_result("COc1ccc(/C=C/C(=O)c2cccc(Nc3nc(-c4ccc(OC)c(OC)c4)nc4ccccc34)c2)cc1OC")
4
>>> measured_result("COc1ccc(/C=C/C(=O)c2cccc(Nc3ncnc4ccccc34)c2)cc1OC")
2

Continue with the next molecule.
Supply recorded selectivity ratio for `COc1ccc(/C=C/C(=O)c2cccc(Nc3ncnc4cc(OC)c(OC)cc34)c2)cc1OC` here. 2

====

- Tested Target: Broad substrate specificity ATP-binding cassette transporter ABCG2 (Homo sapiens)
- Assay Procedure: Inhibition of ABCG2 (unknown origin)
Property: IC50 (µM)
Value expressed in µM; do not type the unit.

Supply recorded IC50 for `COc1ccc(/C=C/C(=O)c2ccc(OC)c(OC)c2)cc1OC` here. 5.12

====

# IC50 annotations
- Tested Target: Broad substrate specificity ATP-binding cassette transporter ABCG2 (Homo sapiens, UniProt Q9UNQ0)
- Sequence (Q9UNQ0 whole entry): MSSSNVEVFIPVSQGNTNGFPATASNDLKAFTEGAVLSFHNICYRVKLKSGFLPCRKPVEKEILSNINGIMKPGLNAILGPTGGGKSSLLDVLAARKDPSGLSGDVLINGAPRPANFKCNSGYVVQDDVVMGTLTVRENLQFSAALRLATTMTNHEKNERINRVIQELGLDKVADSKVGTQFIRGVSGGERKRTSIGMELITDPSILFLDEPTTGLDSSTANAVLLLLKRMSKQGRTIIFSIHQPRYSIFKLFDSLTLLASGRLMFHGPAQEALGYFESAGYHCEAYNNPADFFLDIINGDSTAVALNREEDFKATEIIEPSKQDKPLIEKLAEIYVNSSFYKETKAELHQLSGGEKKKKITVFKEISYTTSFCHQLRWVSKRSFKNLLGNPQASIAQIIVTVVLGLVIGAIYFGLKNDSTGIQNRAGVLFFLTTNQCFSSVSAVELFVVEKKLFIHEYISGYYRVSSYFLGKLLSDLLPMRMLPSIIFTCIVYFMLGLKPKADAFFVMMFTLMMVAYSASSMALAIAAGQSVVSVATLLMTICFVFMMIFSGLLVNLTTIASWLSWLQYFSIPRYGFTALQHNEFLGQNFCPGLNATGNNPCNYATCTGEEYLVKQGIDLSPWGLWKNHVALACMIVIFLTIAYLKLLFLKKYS
- Assay Procedure: Inhibition of human C-terminal GFP-tagged ABCG2 expressed in MDCK2 cells using pheophorbide A as substrate preincubated for 20 mins followed by substrate addition measured after 120 mins by flow cytometry
- Type: cell-based, MDCK-II
Value expressed in nM; do not type the unit.

Solved cases (4 shown):
>>> measured_result("COc1cccc(/C=C/C(=O)c2ccc(Nc3ncnc4ccccc34)cc2)c1")
680
>>> measured_result("O=C(/C=C/c1ccccc1)c1ccc(Nc2nc(-c3ccccc3)nc3ccccc23)cc1")
920
>>> measured_result("COc1ccc(/C=C/C(=O)c2ccc(Nc3ncnc4cc(OC)c(OC)cc34)cc2)cc1OC")
1230
>>> measured_result("COc1cccc(/C=C/C(=O)c2ccc(Nc3nc(-c4ccc(OC)c(OC)c4)nc4ccccc34)cc2)c1")
360

Supply recorded IC50 for `COc1cccc(/C=C/C(=O)c2cccc(Nc3nc(-c4ccccc4)nc4ccccc34)c2)c1` here. 680

Supply recorded IC50 for `COc1ccc(-c2nc(Nc3ccc(C(=O)/C=C/c4ccccc4)cc3)c3ccccc3n2)cc1OC` here. 1090

Supply recorded IC50 for `COc1cccc(/C=C/C(=O)c2cccc(Nc3nc(-c4ccc(OC)c(OC)c4)nc4ccccc34)c2)c1` here. 310

Supply recorded IC50 for `COc1ccc(/C=C/C(=O)c2ccc(Nc3nc(-c4ccccc4)nc4ccccc34)cc2)cc1OC` here. 290

Supply recorded IC50 for `COc1ccc(/C=C/C(=O)c2cccc(Nc3ncnc4ccccc34)c2)cc1OC` here. 1300

Supply recorded IC50 for `COc1ccc(/C=C/C(=O)c2cccc(Nc3ncnc4ccccc34)c2)cc1` here. 890

Supply recorded IC50 for `COc1ccc(/C=C/C(=O)c2ccc(Nc3nc(-c4ccc(OC)c(OC)c4)nc4ccccc34)cc2)cc1OC` here. 190

Supply recorded IC50 for `COc1cccc(/C=C/C(=O)c2ccc(Nc3ncnc4cc(OC)c(OC)cc34)cc2)c1` here. 390

Supply recorded IC50 for `COc1cccc(/C=C/C(=O)c2ccc(Nc3nc(-c4ccccc4)nc4ccccc34)cc2)c1` here. 880

Supply recorded IC50 for `COc1ccc(/C=C/C(=O)c2cccc(Nc3nc(-c4ccc(OC)c(OC)c4)nc4ccccc34)c2)cc1OC` here. 600

Supply recorded IC50 for `COc1ccc(/C=C/C(=O)c2cccc(Nc3nc(-c4ccccc4)nc4ccccc34)c2)cc1OC` here. 460

Supply recorded IC50 for `COc1ccc(/C=C/C(=O)c2ccc(Nc3nc(-c4ccc(OC)c(OC)c4)nc4ccccc34)cc2)cc1` here. 3130

Supply recorded IC50 for `COc1ccc(/C=C/C(=O)c2cccc(Nc3nc(-c4ccc(OC)c(OC)c4)nc4ccccc34)c2)cc1` here. 210

Supply recorded IC50 for `COc1ccc(/C=C/C(=O)c2ccc(Nc3ncnc4ccccc34)cc2)cc1OC` here. 840

Supply recorded IC50 for `COc1ccc(/C=C/C(=O)c2ccc(Nc3nc(-c4ccccc4)nc4ccccc34)cc2)cc1` here. 3550

Supply recorded IC50 for `COc1ccc(/C=C/C(=O)c2cccc(Nc3nc(-c4ccccc4)nc4ccccc34)c2)cc1` here. 970

Supply recorded IC50 for `COc1ccc(/C=C/C(=O)c2cccc(Nc3ncnc4cc(OC)c(OC)cc34)c2)cc1OC` here. 1710

Supply recorded IC50 for `COc1ccc(/C=C/C(=O)c2cccc(Nc3ncnc4cc(OC)c(OC)cc34)c2)cc1` here. 320
